experiment: Oral bioavailability in Han Wistar rat at 1.9 micromol/kg by LC-MS/MS analysis; type: ADME, organism-based; conditions: in vivo, 1.9 µmol/kg
property_label: bioavailability

Lookup: Would you kindly share the measured bioavailability for COc1cc(F)c(O[C@H]2CC[C@@H](C(=O)O)CC2)cc1C(=O)N[C@@H]1[C@H]2CC[C@H](C2)[C@@H]1C(=O)NCC(C)(C)C ?
Found: 5.6%

----------
assay: Half life in Han Wistar rat at 0.93 micromol/kg, iv by LC-MS/MS analysis; assay type: ADME, organism-based; settings: in vivo, dose 0.93 µmol/kg
property_label: half-life (h)
Numbers only, in h.

Lookup: What half-life value was documented for this compound, COc1cc(C#N)c(O[C@H]2CC[C@@](C)(C(=O)O)CC2)cc1C(=O)N[C@@H]1[C@H]2CC[C@H](C2)[C@@H]1C(=O)NCC(C)(C)C ?
Found: 2

----------
experiment: Volume of distribution at steady state in Han Wistar rat at 0.90 micromol/kg, iv by LC-MS/MS analysis; type: ADME, organism-based; conditions: in vivo, dose 0.9 µmol/kg, read-out: Vdss
property_label: Vd
Please don't drop the unit; write it after the number.

Lookup: Requested field: Vd. Item: COc1cc(C#N)c(O[C@H]2CC[C@@](C)(C(=O)O)CC2)cc1C(=O)N[C@@H]1[C@H]2CC[C@H](C2)[C@@H]1C(=O)NC12CC(F)(C1)C2
Found: 0.96 L/kg

----------
So I've got a bunch of compounds here, and I need their logD values.
experiment: Octanol/water partition coefficient, logD of the compound at pH 7.4 by shake flask method; format: physicochemical
One number for each entry.

chemical_smiles=CC1(CNC(=O)[C@H]2[C@@H]3CC[C@@H](C3)[C@H]2NC(=O)c2cc(O[C@H]3CC[C@@](C)(C(=O)O)CC3)c(F)cc2OC(F)F)CCC1 data_value=3.3
chemical_smiles=COc1cc(F)c(O[C@H]2CC[C@@](C)(c3noc(=O)[nH]3)CC2)cc1C(=O)N[C@@H]1[C@H]2CC[C@H](C2)[C@@H]1C(=O)NCC1(C)CCC1 data_value=3.8

The record that follows has no logD shown yet.
Lookup: Record request: logD value, item COc1cc(C)c(O[C@H]2CC[C@@](C)(C(=O)O)CC2)cc1C(=O)N[C@@H]1[C@H]2CC[C@H](C2)[C@@H]1C(=O)NCC1(C)CCC1
Found: 3.5

----------
assay: Metabolic stability in human hepatocytes assessed as intrinsic clearance measured per 10^6 viable cells/ml at 1 uM measured upto 120 mins by LC-MS/MS analysis; format: ADME, cell-based, Hepatocyte; conditions: read-out: CLH
Is hepatocyte CLint at 1 µM at least 10 µL/min/1e6 cells? Then Fulfilled. If not, Not fulfilled.

chemical_smiles=COc1cc(F)c(O[C@H]2CC[C@@](C)(C(=O)O)CC2)cc1C(=O)N[C@@H]1[C@H]2CC[C@H](C2)[C@@H]1C(=O)NCC(C)(C)C(F)(F)F label_class="Not fulfilled"

Now take the following molecule into account.
Lookup: Reported hepatocyte CLint at 1 µM at or above 10 µL/min/1e6 cells? COc1cc(Cl)c(O[C@H]2CC[C@@](C)(C(=O)O)CC2)cc1C(=O)N[C@@H]1[C@@H]2CC[C@@H](C2)[C@@H]1C(=O)NCC1(C)CCC1
Found: Fulfilled

meta.source: ChEMBL document CHEMBL5518236
